B1: DYRK1B (parent)
chain: YQGPGTRRLQEVLGVQTGGPGGRR

- Variants of: B1
- measurement.notes: protein stability index of a GFP-peptide fusion (GPS, HEK-293T) (PSI 1-6); higher = more stable;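 also: lentivirally expressed fusions sorted by FACS into six bins by GFP to DsRed ratio, PSI derived from sequencing read proportions per bin multiplied by bin number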
- details: c terminus: a fixed tail appended
Item-by-item account of protein stability index
Output: the number by itself.

Consider the worked cases shown below.
1. G22C: 2.87
2. L9W: 1.36
3. Q10D: 3.3
4. R8I: 2.75
5. G22L: 2.94
6. G22T: 3.35
7. T17F: 2.85
8. G14M: 3.25

Request the reported protein stability index associated with `V12D`
4.34
